Measured values drawn from patent US20240270741A1 for this set.

measurement target: FGFR2 (Homo sapiens)
Sequence (P21802 399-821 limits assumed): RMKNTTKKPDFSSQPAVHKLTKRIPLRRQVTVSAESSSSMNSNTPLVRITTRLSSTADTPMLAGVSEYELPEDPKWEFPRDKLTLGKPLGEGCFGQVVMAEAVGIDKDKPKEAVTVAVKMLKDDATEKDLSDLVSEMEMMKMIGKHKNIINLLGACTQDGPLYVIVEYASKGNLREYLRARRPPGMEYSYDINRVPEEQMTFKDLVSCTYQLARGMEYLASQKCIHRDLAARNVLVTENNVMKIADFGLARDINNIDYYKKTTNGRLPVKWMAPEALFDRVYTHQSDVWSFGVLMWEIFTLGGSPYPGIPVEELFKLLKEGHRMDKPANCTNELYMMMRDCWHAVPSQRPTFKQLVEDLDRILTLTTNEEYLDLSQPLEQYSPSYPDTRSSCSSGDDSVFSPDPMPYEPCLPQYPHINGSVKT
method notes: FGFR wild type enzyme assay (HTRF KinEASE-TK), FGFR2
condition parameters: Enz FGFR2 (nM), FGFR2 wild type enzyme
I'd appreciate it if you could supply log10 of IC50 values for the items below.
Values below are the log10 of the recorded IC50, with nM as the unit.

Prompt: Reported log10 of IC50 for Cc1c(-c2cc(Sc3ncccc3F)c3c(C#N)cnn3c2)cnn1[C@H]1CC[C@@H](NC(=O)CO)CC1 [Example 228] : what is it?
Response: 0.00

Prompt: Endpoint output: log10 of IC50 of Cc1c(-c2cc(Sc3ccccc3C#N)c3c(C#N)cnn3c2)cnn1C[C@@H]1CCCNC1 [Example 170] . Value?
Response: 1.86

Prompt: Can you share its log10 of IC50? I mean this compound: Cc1c(-c2cc(Sc3ccc(F)cc3C#N)c3c(C#N)cnn3c2)cnn1[C@H]1CC[C@@H](N(C)CCO)CC1 [Example 317]
Response: -0.30

Prompt: Please give the measured log10 of IC50 for this compound: CN[C@]1(C)CC[C@H](n2ncc(-c3cc(Sc4ccc(F)cc4C#N)c4c(C#N)cnn4c3)c2C)CC1 [Example 326]
Response: 0.00

Prompt: Give its log10 of IC50 value. Item: Cc1c(-c2cc(Sc3ncccc3F)c3c(C#N)cnn3c2)cnn1[C@H]1CC[C@@H](O)CC1 [Example 184]
Response: 0.20

Prompt: Given CC(=O)N1CCC([C@@H](C)n2ncc(-c3cc(Sc4ncccc4F)c4c(C#N)cnn4c3)c2C)CC1 [Example 174] , state its recorded log10 of IC50.
Response: 0.60

Prompt: Which log10 of IC50 is reported for this compound? Cc1c(-c2cc(Sc3ncccc3F)c3c(C#N)cnn3c2)cnn1[C@@H]1C[C@H]2CNC[C@H]2C1 [Example 226]
Response: 0.00

Prompt: For the compound shown here, Cc1c(-c2cc(Sc3ncccc3F)c3c(C#N)cnn3c2)cnn1[C@H]1CC[C@@H](N(C)C(=O)C(C)(C)N)CC1 [Example 254] , give the reported log10 of IC50.
Response: 0.00

Prompt: Looking for the measured log10 of IC50 of CC(=O)N1C[C@@H]2[C@H](C1)[C@H]2Cn1ncc(-c2cc(Sc3ncccc3F)c3c(C#N)cnn3c2)c1C [Example 237] , can you help?
Response: 0.48

Prompt: So what does the record say about log10 of IC50 for Cc1c(-c2cc(Sc3ccc(F)cc3C#N)c3c(C#N)cnn3c2)cnn1[C@H]1CC[C@@H](O)CC1 [Example 288] ?
Response: 0.00

Prompt: What value of log10 of IC50 has been recorded for this entry: Cc1c(-c2cc(Sc3ncccc3F)c3c(C#N)cnn3c2)cnn1[C@H]1CCCN(S(C)(=O)=O)C1 [Example 165]
Response: 0.30

Prompt: Look up log10 of IC50 for this compound: Cc1nn([C@H]2CC[C@@H](O)CC2)cc1-c1cc(Sc2ccccc2C#N)c2c(C#N)cnn2c1 [Example 313]
Response: 0.00

Prompt: I have this compound here, CC(=O)N[C@H]1CC[C@H](n2ncc(-c3cc(Sc4ccc(F)cc4C#N)c4c(C#N)cnn4c3)c2C)CC1 [Example 274] , and I need its recorded log10 of IC50.
Response: 0.00

Prompt: Entry Cc1c(-c2cc(Sc3ncccc3F)c3c(C#N)cnn3c2)cnn1CC1CCN(CC(=O)N(C)C)CC1 [Example 217] has what log10 of IC50?
Response: 0.78

Prompt: Query (compound): Cc1c(-c2cc(Sc3ncccc3F)c3c(C#N)cnn3c2)cnn1CC1CCNCC1 [Example 222] ; field requested: log10 of IC50
Response: 0.70
